tested on: HeLa; experiment: Induction of apoptosis in human HeLa cells assessed as early apoptotic cells at 10 uM incubated for 24 hrs by Annexin V-PE staining based flow cytometry analysis (reference value: 2.55%); type: functional
Let's look at some molecules and their measured Activity.
Please don't drop the unit; write it after the number.

Solved cases (4 shown):
>>> experimental_value("C=C(C)[C@@H]1CC[C@]2(CO)CC[C@]3(C)[C@H](CC[C@@H]4[C@@]5(C)CC[C@H](O)C(C)(C)[C@@H]5CC[C@]43C)[C@@H]12")
"12.16%"
>>> experimental_value("C/C1=C/CCCCCCCCC(=O)OC[C@]23CC[C@@H]1[C@@H]2[C@H]1CC[C@@H]2[C@@]4(C)CC[C@H](O)C(C)(C)[C@@H]4CC[C@@]2(C)[C@]1(C)CC3")
"2.66%"
>>> experimental_value("C/C1=C/CCC(=O)OC[C@]23CC[C@@H]1[C@@H]2[C@H]1CC[C@@H]2[C@@]4(C)CC[C@H](O)C(C)(C)[C@@H]4CC[C@@]2(C)[C@]1(C)CC3")
"5.09%"
>>> experimental_value("C=CCCCCCCCCC(=O)OC[C@]12CC[C@@H](C(=C)C)[C@@H]1[C@H]1CC[C@@H]3[C@@]4(C)CC[C@H](O)C(C)(C)[C@@H]4CC[C@@]3(C)[C@]1(C)CC2")
"0.98%"

# input for lookup
Lookup: Can you share its Activity? I mean this molecule: C=CCCC(=O)OC[C@]12CC[C@@H](C(=C)C)[C@@H]1[C@H]1CC[C@@H]3[C@@]4(C)CC[C@H](O)C(C)(C)[C@@H]4CC[C@@]3(C)[C@]1(C)CC2
Found: 10.95%

====

tested on: HeLa; assay: Induction of apoptosis in human HeLa cells assessed as late apoptotic cells at 10 uM incubated for 24 hrs by Annexin V-PE staining based flow cytometry analysis (reference value: 0.02%); type: functional
Let's look at some compounds and their measured Activity.
Please don't drop the unit; write it after the number.

>>> experimental_value("C=CCCC(=O)OC[C@]12CC[C@@H](C(=C)C)[C@@H]1[C@H]1CC[C@@H]3[C@@]4(C)CC[C@H](O)C(C)(C)[C@@H]4CC[C@@]3(C)[C@]1(C)CC2")
"30.3%"
>>> experimental_value("C/C1=C/CCC(=O)OC[C@]23CC[C@@H]1[C@@H]2[C@H]1CC[C@@H]2[C@@]4(C)CC[C@H](O)C(C)(C)[C@@H]4CC[C@@]2(C)[C@]1(C)CC3")
"62.84%"
>>> experimental_value("C/C1=C/CCCCCCCCC(=O)OC[C@]23CC[C@@H]1[C@@H]2[C@H]1CC[C@@H]2[C@@]4(C)CC[C@H](O)C(C)(C)[C@@H]4CC[C@@]2(C)[C@]1(C)CC3")
"26.22%"

Lookup: Can you share its Activity? I mean this compound: C=C(C)[C@@H]1CC[C@]2(CO)CC[C@]3(C)[C@H](CC[C@@H]4[C@@]5(C)CC[C@H](O)C(C)(C)[C@@H]5CC[C@]43C)[C@@H]12 [BETULIN]
Found: 0.03%

Lookup: Can you share its Activity? I mean this compound: C=CCCCCCCCCC(=O)OC[C@]12CC[C@@H](C(=C)C)[C@@H]1[C@H]1CC[C@@H]3[C@@]4(C)CC[C@H](O)C(C)(C)[C@@H]4CC[C@@]3(C)[C@]1(C)CC2
Found: 18.58%
